# Measurement Target: UniProt Q9NYK1
# Sequence (Q9NYK1 27-1049): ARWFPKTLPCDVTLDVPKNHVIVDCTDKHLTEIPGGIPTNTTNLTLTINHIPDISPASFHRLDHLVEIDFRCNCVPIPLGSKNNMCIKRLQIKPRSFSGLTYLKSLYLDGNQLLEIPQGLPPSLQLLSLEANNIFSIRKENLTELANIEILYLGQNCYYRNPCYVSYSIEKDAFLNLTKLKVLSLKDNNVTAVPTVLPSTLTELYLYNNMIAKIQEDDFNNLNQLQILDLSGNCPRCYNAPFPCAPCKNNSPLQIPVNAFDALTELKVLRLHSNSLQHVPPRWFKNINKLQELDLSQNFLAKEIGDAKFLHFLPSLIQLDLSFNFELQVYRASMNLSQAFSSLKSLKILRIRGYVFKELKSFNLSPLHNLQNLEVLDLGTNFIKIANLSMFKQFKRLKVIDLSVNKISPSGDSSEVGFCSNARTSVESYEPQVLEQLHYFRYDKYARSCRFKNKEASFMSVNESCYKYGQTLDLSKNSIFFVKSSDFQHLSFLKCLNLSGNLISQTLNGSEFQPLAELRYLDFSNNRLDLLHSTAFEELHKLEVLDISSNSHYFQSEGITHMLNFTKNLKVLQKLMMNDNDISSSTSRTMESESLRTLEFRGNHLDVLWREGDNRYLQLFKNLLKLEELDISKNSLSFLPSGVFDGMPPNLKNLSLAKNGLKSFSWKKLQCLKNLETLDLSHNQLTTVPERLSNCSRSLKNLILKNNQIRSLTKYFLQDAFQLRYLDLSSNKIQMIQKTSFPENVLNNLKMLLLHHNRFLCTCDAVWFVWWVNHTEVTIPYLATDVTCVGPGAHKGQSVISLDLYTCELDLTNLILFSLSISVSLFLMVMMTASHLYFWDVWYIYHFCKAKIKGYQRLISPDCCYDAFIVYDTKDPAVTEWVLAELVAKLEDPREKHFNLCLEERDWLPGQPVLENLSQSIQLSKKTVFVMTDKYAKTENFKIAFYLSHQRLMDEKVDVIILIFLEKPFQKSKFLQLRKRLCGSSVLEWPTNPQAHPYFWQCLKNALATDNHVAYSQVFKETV
# Procedure Details: TLR7 activity, MC50 values (procedure only by reference to Gorden et al. and Zhu et al.)
# Assay type: cell-based
# Run Conditions: assay format not given
The entries below come with measured EC50 values attached.

# Item Smiles, EC50
rows = [
    ("CCCN(CCC)C(=O)C1=Cc2ccc(-c3cncnc3)cc2N=C(N)C1", "744 nM"),
]

# input for lookup
Q: Input CCCN(CC(N)=O)C(=O)C1=Cc2ccc(-c3ccc(C(=O)N4CCCC4)cc3)cc2N=C(N)C1 , output reported EC50.
Result: 767 nM
